// reported pIC50 for each item listed
- TARGET_ENTITY: T1, human A-beta(1-40) peptide, monomeric (BAM) (human, biotin at the C-terminus in capture ELISA, SPR and TR-FRET; not biotinylated where coated directly (Example 7))
- T1 construct: synthetic peptide (Anaspec), TFA/HFIP treated to give monomer; also called monomeric A-beta
- PROTOCOL_DETAILS: ABII050 TR-FRET competition assay
As a rule, pIC50 stands for the negative log10 of the concentration, concentration in M.

BINDER	MEASUREMENT
ABII059 (VHH, humanized variant of ABII050) VHH: EVQLLESGGGLVQPGGSLRLSCAASGRTFNNYNMGWFRQAPGKGREFVAAVSRSGVSTYYADSVKGRFTISRDNSKNTVYLQMNSLRPEDTAVYYCAAAYRGTAINVRRSYSSWGQGTLVTVSS	7.89

Please indicate pIC50 recorded for Fab fragment of monoclonal antibody m266 (Fab, V domains shown, also called Fab266; m266Fab) VH: EVKLVESGGGLVQPGGSLKLSCAVSGFTFSRYSMSWVRQTPEKRLELVAQINSVGNSTYYPDTVKGRFTISRDNAEYTLSLQMSGLRSDDTATYYCASGDYWGQGTTLTVSS VL: DVVMTQTPLSLPVSLGDQASISCRSSQSLIYSDGNAYLHWFLQKPGQSPKLLIYKVSNRFSGVPDRFSGSGSGTDFTLKISRVETEDLGVYFCSQSTHVPWTFGGGTKLEIK 9.28

Please indicate pIC50 recorded for ABII322-PEG40 (designed binder, PEG40 on the Cys at position 14 of the 27GS linker, 059-27GSC-035; also called PEGylated ABII322 VHH construct; biparatopic PEGylated VHH ABII322) VQLLESGGGLVQPGGSLRLSCAASGRTFNNYNMGWFRQAPGKGREFVAAVSRSGVSTYYADSVKGRFTISRDNSKNTVYLQMNSLRPEDTAVYYCAAAYRGTAINVRRSYSSWGQGTLVTVSSGGGSGGGGSGGGGCGGGGSGGGGSGGGEVQLLESGGGLVQPGGSLRLSCVHSGPTFRTDTMGWFRQAPGKGREFVAAVTWNSGRINYADSVKGRFTISRDNSKNTAYLQMNSLRPEDTAVYYCAAHRFVVGGNRVEDWRYWGQGTLVTVSS 9.77
